test system: Plasmodium falciparum; assay: Antiplasmodial activity against chloroquine-resistant Plasmodium falciparum K1 infected in human erythrocytes after 48 hrs assessed as [3H]hypoxanthine incorporation by liquid scintillation counting; type: functional, organism-based
measured_attribute: log10(IC50) (log10 of the value in nM)

# compound_smiles, tested_target, reading
records = [
    ("Cl.Cl.N=C(N)c1ccc(-c2cn(-c3cccc(C(=N)N)c3)nn2)cc1", "Plasmodium falciparum", 0.60),
    ("Oc1ccc(C2=NCCN2)cc1-n1cc(-c2ccc(C3=NCCN3)cc2)nn1", "Plasmodium falciparum", 2.95),
    ("COc1ccc(C(=N)NC(C)C)cc1-c1cn(-c2ccc(C(=N)NC(C)C)cc2)nn1", "Plasmodium falciparum", 1.41),
    ("c1cc(C2=NCCN2)cc(-c2cn(-c3cccc(C4=NCCN4)c3)nn2)c1", "Plasmodium falciparum", 2.56),
    ("COc1cc(C(=N)N)ccc1-n1cc(-c2cccc(C(=N)N)c2)nn1.Cl.Cl", "Plasmodium falciparum", 1.40),
]

----------
Examples of compounds with documented pIC50 follow.
system: L6; experiment: Cytotoxicity against rat L6 cells after 70 hrs by alamar blue assay; format: cell-based; details: L6, 70 h
pIC50: −log10 of the molar value.
measured_attribute: pIC50

# compound_smiles, limit_operator, reading
records = [
    ("Cl.Cl.N=C(N)c1cccc(-n2cc(-c3ccc(C(=N)N)cc3O)nn2)c1", "<", 3.68),
    ("COc1cc(C2=NCCN2)ccc1-n1cc(-c2ccc(C3=NCCN3)cc2)nn1", "<", 3.75),
    ("CC(C)NC(=N)c1ccc(-n2cc(-c3ccc(C(=N)NC(C)C)cc3O)nn2)cc1.Cl.Cl", "<", 3.74),
    ("COc1cc(C2=NCCN2)ccc1-n1cc(-c2cccc(C3=NCCN3)c2)nn1", "<", 3.76),
    ("c1cc(C2=NCCN2)cc(-c2cn(-c3ccc(C4=NCCN4)cc3)nn2)c1", "=", 3.90),
    ("Cl.Cl.N=C(N)c1ccc(-n2cc(-c3ccc(C(=N)N)cc3O)nn2)cc1", "=", 4.31),
    ("CC(C)NC(=N)c1cccc(-c2cn(-c3cc(C(=N)NC(C)C)ccc3O)nn2)c1", "<", 3.78),
    ("c1cc(C2=NCCN2)cc(-n2cc(-c3ccc(C4=NCCN4)cc3)nn2)c1", "=", 3.88),
    ("Cl.Cl.N=C(N)c1ccc(-c2cn(-c3cccc(C(=N)N)c3)nn2)cc1", "=", 4.07),
    ("Cl.Cl.c1cc(-c2cn(-c3ccc(C4=NCCN4)cc3)nn2)ccc1C1=NCCN1", "=", 4.00),
]

----------
system: Trypanosoma brucei rhodesiense; test: Antitrypanosomal activity against Trypanosoma brucei rhodesiense STIB900 after 70 hrs by alamar blue assay; assay type: functional, organism-based; details: STIB900, 70 h
Consider the cut-off 0.08 µM. If the recorded IC50 is strictly smaller, the label is fulfilled; if not, the label is not fulfilled.

# compound_smiles, discrete_label
data = [
    ("COc1ccc(C2=NCCN2)cc1-c1cn(-c2cccc(C3=NCCN3)c2)nn1.Cl.Cl", "fulfilled"),
    ("COc1cc(C(=N)NC(C)C)ccc1-n1cc(-c2cccc(C(=N)NC(C)C)c2)nn1", "not fulfilled"),
    ("Cl.Cl.N=C(N)c1cccc(-c2cn(-c3cccc(C(=N)N)c3)nn2)c1", "not fulfilled"),
    ("Cl.Cl.N=C(N)c1cccc(-n2cc(-c3cc(C(=N)N)ccc3O)nn2)c1", "not fulfilled"),
    ("Cl.Cl.N=C(N)c1ccc(-n2cc(-c3ccc(C(=N)N)cc3O)nn2)cc1", "fulfilled"),
]
